Data provenance is patent US7112586B2.

# studySystem: Motilin Receptor (Oryctolagus cuniculus)
# Construct: The muscle tissue was homogenized in 10 volumes of 50 mM Tris-Cl; from tissue; host or cells: rabbit colon smooth muscle, crude membrane homogenate
# experimentDescription: Motilin receptor binding, rabbit colon membranes, 125I porcine motilin
# statedConditions: rabbit colon membranes; read-out: Rabbit Colon IC50
measureName: pIC50
Please report pIC50 as the negative decimal logarithm of the molar concentration, giving only the number.

INPUT: May I ask what pIC50 has been recorded for O=C(Nc1ccccc1)N(CC1CCCC(N(Cc2cccc(Cl)c2)C(=O)C(Cl)(Cl)Cl)C1)c1cccc(OCCN2CCCC2)c1 (stereo not drawn) [compound 223] ?
OUTPUT: 7.39

INPUT: Same read-out for CCN(CC)CCOc1cccc(N(Cc2ccc(F)cc2)C(=O)CCCC(=O)N(CCc2ccccc2)Cc2ccccc2)c1 [compound 178] ?
OUTPUT: 7.15

INPUT: O=C(CCC(=O)N(Cc1ccc(F)cc1)c1cccc(OCCN2CCOCC2)c1)N(CCc1ccccc1)Cc1cccc(Cl)c1 [compound 163] ?
OUTPUT: 6.76

INPUT: Also CCN(CC)CCOc1cccc(N(CC2CCCC(N(Cc3cccc(Cl)c3)C(=O)C(C)(C)C)C2)C(=O)c2ccc(F)cc2)c1 (stereo not drawn) [compound 233] ?
OUTPUT: 6.77

INPUT: Check O=C(c1ccc(F)cc1)N(C[C@H]1CCC[C@@H](N(Cc2cccc(Cl)c2)C(=O)C(Cl)(Cl)Cl)C1)c1cccc(OCCN2CCCCC2)c1 [ID 239] too.
OUTPUT: 7.14

INPUT: # repeat for O=C(c1ccc(F)cc1)N(CC1CCCC(N(Cc2ccccc2)C(=O)C(c2ccccc2)c2ccccc2)C1)c1cccc(OCCN2CCOCC2)c1 (stereo not drawn) [compound 112]
OUTPUT: 6.32

---

# studySystem: Motilin Receptor (Oryctolagus cuniculus, UniProt G1T803)
# Construct: The muscle tissue was homogenized in 10 volumes of 50 mM Tris-Cl; from tissue; host or cells: rabbit colon smooth muscle, crude membrane homogenate
# Sequence (G1T803 1-400): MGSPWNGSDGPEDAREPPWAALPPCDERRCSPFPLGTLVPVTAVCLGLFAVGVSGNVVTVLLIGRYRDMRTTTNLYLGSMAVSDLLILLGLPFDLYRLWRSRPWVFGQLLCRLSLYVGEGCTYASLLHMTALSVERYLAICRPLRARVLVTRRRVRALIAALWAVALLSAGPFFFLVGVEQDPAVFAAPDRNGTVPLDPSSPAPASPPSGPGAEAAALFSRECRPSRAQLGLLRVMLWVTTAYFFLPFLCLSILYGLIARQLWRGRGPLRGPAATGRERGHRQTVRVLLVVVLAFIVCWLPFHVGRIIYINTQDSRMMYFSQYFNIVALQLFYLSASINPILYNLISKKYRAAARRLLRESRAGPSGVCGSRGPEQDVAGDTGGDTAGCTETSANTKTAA
# experimentDescription: Motilin receptor binding, rabbit colon membranes, 125I porcine motilin
# Set-up: dose or concentration left out as unconfirmed
# statedConditions: rabbit colon membranes; 125I porcine motilin binding
measureName: % Inh (Rabbit colon) (%)
Supply the numeric figure in %, leaving out any unit text.

INPUT: Return reported % Inh (Rabbit colon); argument: O=C(Nc1ccccc1)N(CC1CCCC(NCc2cc(Cl)cc(Cl)c2)C1)c1cccc(OCCN2CCOCC2)c1 (centres unmarked) [compound 87]
OUTPUT: 22

INPUT: One more molecule: O=C(Nc1ccccc1)N(CC1CCCC(NCc2ccccc2)C1)c1cccc(OCCN2CCOCC2)c1 (centres unmarked) [compound 84]
OUTPUT: 12

INPUT: Then O=C(c1ccc(F)cc1)N(CC1CCCC(N(Cc2ccccc2)Cc2ccccc2)C1)c1cccc(OCCN2CCCC2)c1 (centres unmarked) [compound 222] ?
OUTPUT: 83

INPUT: For O=C(Nc1ccccc1)N(CC1CCCC(NCc2cccc(Cl)c2)C1)c1cccc(OCCN2CCOCC2)c1 (centres unmarked) [compound 85] then?
OUTPUT: 28

INPUT: Then this molecule: O=C(Nc1ccccc1)N(CC1CCCC(NCc2cccc3ccccc23)C1)c1cccc(OCCN2CCOCC2)c1 (centres unmarked) [compound 88]
OUTPUT: 0

---

Would you mind telling me the reported Human Antrum % Inh @1 μM of each entry?
# studySystem: motilin receptor preparation (Human antrum tissue) (Homo sapiens)
# Construct: Human antrum tissue from Analytical Biological Services (Wilmington, Del.) was prepared as a motilin receptor preparation; tissue Analytical Biological Services (Wilmington, Del.); host or cells: human antrum (stomach) muscle tissue, crude membrane homogenate
# Sequence (O43193 whole entry): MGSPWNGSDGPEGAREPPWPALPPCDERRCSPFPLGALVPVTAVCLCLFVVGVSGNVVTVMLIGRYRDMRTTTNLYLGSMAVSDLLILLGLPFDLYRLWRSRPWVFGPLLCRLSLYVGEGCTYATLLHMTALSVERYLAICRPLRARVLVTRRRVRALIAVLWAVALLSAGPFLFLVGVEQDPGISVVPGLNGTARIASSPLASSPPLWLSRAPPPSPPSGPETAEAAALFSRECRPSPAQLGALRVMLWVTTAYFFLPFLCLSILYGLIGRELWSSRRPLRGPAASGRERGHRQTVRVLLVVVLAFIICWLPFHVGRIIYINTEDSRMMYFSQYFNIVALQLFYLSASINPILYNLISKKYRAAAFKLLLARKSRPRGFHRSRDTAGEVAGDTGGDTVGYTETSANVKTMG
# experimentDescription: 125I-motilin binding to human antral stomach membranes
# statedConditions: human antrum membranes; @1 μM
Kindly provide the numeric value in % only, without the unit symbol.

INPUT: What value of Human Antrum % Inh @1 μM has been recorded for this entry: CC(C)(C)C(=O)N(Cc1ccccc1)C1CCC(CN(C(=O)c2ccc(F)cc2)c2cccc(OCCN3CCCC3)c2)C1 (centres unmarked)
OUTPUT: 100

INPUT: Also check `O=C(c1ccc(F)cc1)N(C[C@H]1CC[C@@H](N(Cc2ccccc2)C(=O)C(Cl)(Cl)Cl)C1)c1cccc(OCCN2CCCC2)c1`
OUTPUT: 88

INPUT: Entry O=C(c1ccc(F)cc1)N(CC1CCC(N(Cc2cccc([N+](=O)[O-])c2)C(=O)C(Cl)(Cl)Cl)C1)c1cccc(OCCN2CCCC2)c1 (centres unmarked) please
OUTPUT: 98

INPUT: Now consider CC(C)(C)C(=O)N(Cc1cccc(Cl)c1)C1CCC(CN(C(=O)c2ccc(F)cc2)c2cccc(OCCN3CCCC3)c2)C1 (centres unmarked) .
OUTPUT: 98

INPUT: Now the molecule CC(C)(C)C(=O)N(Cc1ccccc1)C1C=CC(CN(C(=O)c2ccc(F)cc2)c2cccc(OCCN3CCCC3)c2)C1 (centres unmarked)
OUTPUT: 94
